Each entry below carries its recorded GI50.
# Tested on: OVCAR-5
# ASSAY_PROCEDURE: NCI tumour cell line growth inhibition, 48 h
Active and inactive are the calls of the source. Rule as the data show it: active = GI50 up to about 1.1 µM and inactive = higher.
RESULT_TYPE: GI50

>>> result("COc1ccc2c(=O)c3ccoc3n(CC=C(C)C)c2c1")
"> 100 µM (inactive)"
>>> result("CCCNC(=O)CCC(C)[C@H]1CCC2C3C(C[C@H](OC(C)=O)[C@@]21C)[C@@]1(C)CCC2(C[C@H]1C[C@H]3OC(C)=O)OOC1(CCC(C)CC1)OO2 (some centres not stated)")
"29.2 µM (inactive)"
>>> result("CCOC(=O)CCC(C(=O)OCC)n1nnc2cc(Nc3c(C)[n+]([O-])c4cc(Cl)ccc4[n+]3[O-])ccc21 (configuration not stated)")
"62.8 µM (inactive)"
>>> result("COC(=O)[C@@H]1[C@H]2CC[C@]3(C)[C@@H](OC(C)=O)CC[C@H]3[C@@H]2CC[C@H]1C1(C)SCCS1")
"22.8 µM (inactive)"
>>> result("O=C(O)c1ccc(C(=O)O)c(C(=O)Nc2ccc3c(c2)C(=O)c2ccccc2-3)c1")
"> 100 µM (inactive)"
>>> result("O=C(c1ccccc1)C1C(C(=O)c2ccccc2)N1Cc1ccccc1 (configuration not stated)")
"> 100 µM (inactive)"
>>> result("COC(=O)c1ccc(NC(=O)O/N=C(\\Cl)C(C)C)cc1")
"17.1 µM (inactive)"
>>> result("CC(C)N(C(=O)C12C3C4C1C1C2C3C41C(=O)C(C)(C)C)C(C)C (configuration not stated)")
"> 100 µM (inactive)"
>>> result("O=c1[nH]c(=O)n(COCc2ccccc2)c2ccc(Br)cc12")
"> 100 µM (inactive)"
>>> result("O=[N+]([O-])c1ccc2nc3ccc([N+](=O)[O-])cn3c2c1")
"32.5 µM (inactive)"
>>> result("CCOC(=O)CCC(C(=O)OCC)n1nnc2ccc(Nc3c(C)[n+]([O-])c4cc(Cl)ccc4[n+]3[O-])cc21 (configuration not stated)")
"46.5 µM (inactive)"
>>> result("COc1ccc(C(OC(=O)[C@H](O[Si](C)(C)C(C)(C)C)[C@@H](NC(=O)c2ccccc2)c2ccccc2)c2ccc(OC)cc2)cc1")
"> 100 µM (inactive)"
>>> result("C=C1[C@H](OC(=O)C(C)C)[C@@H](OC(C)=O)[C@@H](OC(C)=O)C(C)(C)[C@@H]2O[C@H]2[C@@H](C)C(=O)[C@@]2(OC(C)=O)C[C@@](C)(OC(C)=O)[C@H](OC(C)=O)[C@@H]2[C@H]1OC(C)=O")
"> 100 µM (inactive)"
>>> result("COc1ccc(C(=O)C2CCC(C(=O)O)C2)cc1 (configuration not stated)")
"> 100 µM (inactive)"
>>> result("O=C1c2ccccc2/C=C\\C(c2ccccc2)=N/N1c1ccccc1Cl")
"72.3 µM (inactive)"
>>> result("CN(C)CCCNC(=O)c1cc2/c(=C\\c3ccc(N(C)C)cc3)c3ccccc3n2[n+]1C")
"56.6 µM (inactive)"
>>> result("COc1ccc(Sc2ccccc2N)cc1")
"46.5 µM (inactive)"
